List of pIC50 values.
- TESTED_SYSTEM: RAC-alpha serine/threonine-protein kinase (Homo sapiens, UniProt P31749)
- Sequence (P31749 whole entry): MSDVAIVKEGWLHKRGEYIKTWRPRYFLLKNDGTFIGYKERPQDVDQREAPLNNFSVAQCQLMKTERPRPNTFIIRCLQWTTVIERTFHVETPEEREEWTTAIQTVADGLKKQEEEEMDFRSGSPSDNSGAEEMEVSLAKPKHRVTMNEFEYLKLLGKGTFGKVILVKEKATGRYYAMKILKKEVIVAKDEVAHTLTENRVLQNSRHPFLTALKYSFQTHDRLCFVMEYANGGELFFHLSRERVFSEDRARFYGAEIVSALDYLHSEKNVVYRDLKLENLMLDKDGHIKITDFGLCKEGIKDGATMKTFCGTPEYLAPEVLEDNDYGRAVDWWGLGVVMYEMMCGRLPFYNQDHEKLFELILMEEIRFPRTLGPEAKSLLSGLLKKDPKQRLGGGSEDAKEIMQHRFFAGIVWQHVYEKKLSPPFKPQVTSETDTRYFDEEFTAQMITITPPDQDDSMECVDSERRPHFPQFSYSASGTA
- TEST_DESCRIPTION: Inhibition of Akt1
# log scale: pIC50 equals minus log10 of the concentration in mol/L

smiles=CSc1ncc2cc(-c3ccccc3)c(-c3ccc(CN4CCC(c5nc(-c6cccnc6)no5)CC4)cc3)nc2n1 tested_system="RAC-alpha serine/threonine-protein kinase (Homo sapiens, UniProt P31749)" obs_value=7.19
smiles=CSc1ncc2cc(-c3ccccc3)c(-c3ccc(CNCCc4c[nH]cn4)cc3)nc2n1 tested_system="RAC-alpha serine/threonine-protein kinase (Homo sapiens, UniProt P31749)" obs_value=7.00
smiles=NC(=O)c1ncc2cc(-c3ccccc3)c(-c3ccc(CN4CCC(c5nnc(-c6ccccn6)[nH]5)CC4)cc3)nc2n1 tested_system="RAC-alpha serine/threonine-protein kinase (Homo sapiens, UniProt P31749)" obs_value=8.21

Would you kindly look at the next entry?
If you can, please state the reported pIC50 value of "CCNC(=O)NC1CCN(Cc2ccc(-c3nc4nc(SC)ncc4cc3-c3ccccc3)cc2)CC1" .
7.09
